Sourced from patent US20120132797A1

Below: a set of entries, each annotated with reported Lysophosphatidylcholine (C18:2).
- System: Wistar (Crl:WI(Han)) rats
- ASSAY_NAME: Mass spectrometry-based plasma metabolite profiling of rats treated with known inducers of thyroid function impairment
- Assay type: in vivo, rat
- CONDITION_DESCRIPTION: female rats, fh7 (study day 7), ratio of group medians vs controls, Table 1
Reply with just the number.

>>> recorded_measurement("N#Cc1ccc(CC(=NNC(=O)Nc2ccc(OC(F)(F)F)cc2)c2cccc(C(F)(F)F)c2)cc1 (mixture of isomers)")
0.88
>>> recorded_measurement("CCCc1cc(=O)[nH]c(=S)[nH]1")
1.07
>>> recorded_measurement("Cn1cc[nH]c1=S")
1.52

Continue with the compound presented below.
Per the records, this compound ( `S=C1NCCN1` ) has Lysophosphatidylcholine (C18:2) equal to 1.08
